system-name: sGC enzyme (Homo sapiens, UniProt Q02108+Q02153)
Construct: host or cells: HEK293 cells expressing GloSensor 40F cGMP
experiment-summary: cGMP GloSensor cell-based assay, 384-well format
condition-details: read-out: sGC_HEK_GloSensor EC50/IC50 Abs (Norm) (nM) Binned (~)
Listed here: items and their measured EC50.

Example compounds with recorded EC50:
compound_smiles=O=C(O)C[C@H](O)C[C@H](O)CCNc1nc(-c2cc(-c3ccon3)n(Cc3ccccc3F)n2)ncc1F endpoint_value="100 to 1000 nM"
compound_smiles=Oc1nc(-c2cc(-c3ccon3)n(Cc3ncccn3)n2)ncc1F endpoint_value="> 1000 nM"
compound_smiles=NCC(=O)OCCCNc1nc(-c2cc(-c3ccon3)n(Cc3ccccc3F)n2)ncc1F endpoint_value="< 100 nM"

Which EC50 value is on record for `Cn1nccc1Cn1nc(-c2ncc(F)c(O)n2)cc1-c1ccon1` ? > 1000 nM

Which EC50 value is on record for `COC(=O)CCN(C)c1nc(-c2cc(-c3ccon3)n(Cc3ccccc3F)n2)ncc1F` ? < 100 nM

Which EC50 value is on record for `CC(=O)c1cc(-c2nncc(N)n2)nn1Cc1ccccc1F` ? > 1000 nM

Which EC50 value is on record for `O=C1C[C@H](O)C[C@@H](CCNc2nc(-c3cc(-c4ccon4)n(Cc4ccccc4F)n3)ncc2F)O1` ? < 100 nM

Which EC50 value is on record for `Cc1cc(Cn2nc(-c3ncc(F)c(O)n3)cc2-c2ccon2)on1` ? 100 to 1000 nM

----------
Listed here: items and their measured EC50.
system-name: soluble guanylate cyclase (sGC) (Homo sapiens, UniProt Q02108+Q02153)
Construct: endogenously expressing soluble guanylate cyclase (sGC); endogenous in cells; host or cells: HEK293
Sequence (Q02153 1-619): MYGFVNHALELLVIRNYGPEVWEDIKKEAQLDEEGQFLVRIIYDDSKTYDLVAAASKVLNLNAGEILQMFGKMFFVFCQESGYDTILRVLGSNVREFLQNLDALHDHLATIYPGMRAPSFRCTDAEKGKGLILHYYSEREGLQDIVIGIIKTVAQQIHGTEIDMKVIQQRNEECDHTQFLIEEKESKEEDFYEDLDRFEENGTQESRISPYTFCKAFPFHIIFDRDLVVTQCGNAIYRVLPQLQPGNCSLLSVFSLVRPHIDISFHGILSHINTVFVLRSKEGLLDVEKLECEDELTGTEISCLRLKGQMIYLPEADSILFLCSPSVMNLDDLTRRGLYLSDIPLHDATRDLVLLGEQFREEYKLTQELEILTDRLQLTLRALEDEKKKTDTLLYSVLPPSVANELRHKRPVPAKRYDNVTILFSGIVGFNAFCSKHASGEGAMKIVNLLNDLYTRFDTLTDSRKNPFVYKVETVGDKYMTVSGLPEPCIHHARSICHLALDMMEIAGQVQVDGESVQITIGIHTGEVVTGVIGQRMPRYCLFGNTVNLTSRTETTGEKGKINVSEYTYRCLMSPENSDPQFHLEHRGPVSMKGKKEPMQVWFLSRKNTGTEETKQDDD
Sequence (Q02108 1-690): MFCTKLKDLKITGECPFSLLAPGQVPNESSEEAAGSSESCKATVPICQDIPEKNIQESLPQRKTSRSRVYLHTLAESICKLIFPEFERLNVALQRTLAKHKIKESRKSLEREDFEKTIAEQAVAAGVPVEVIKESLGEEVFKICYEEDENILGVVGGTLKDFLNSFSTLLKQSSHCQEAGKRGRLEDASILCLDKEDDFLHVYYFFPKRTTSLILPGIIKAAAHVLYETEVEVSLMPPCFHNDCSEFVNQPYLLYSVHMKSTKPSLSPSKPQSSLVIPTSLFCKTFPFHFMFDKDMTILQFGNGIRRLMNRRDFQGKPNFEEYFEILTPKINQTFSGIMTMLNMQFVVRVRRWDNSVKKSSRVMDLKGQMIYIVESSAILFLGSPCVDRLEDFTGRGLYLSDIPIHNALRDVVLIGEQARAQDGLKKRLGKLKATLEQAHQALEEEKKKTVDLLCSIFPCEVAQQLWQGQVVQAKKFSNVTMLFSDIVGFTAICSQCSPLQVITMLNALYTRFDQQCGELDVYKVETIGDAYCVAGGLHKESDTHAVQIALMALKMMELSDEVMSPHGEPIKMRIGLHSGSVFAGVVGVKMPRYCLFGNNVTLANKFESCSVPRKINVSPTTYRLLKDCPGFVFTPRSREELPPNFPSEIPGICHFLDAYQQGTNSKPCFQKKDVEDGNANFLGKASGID
experiment-summary: sGC-HEK-cGMP assay with LC/MS detection
Assay type: cell-based
condition-details: HEK293 whole cells, LC/MS detection of cGMP, 10 μM DETA-NONOate; 50% of high control response (30 μM Compound Y); read-out: Absolute EC50 (nM)- binned (~)

molecule=NC(=O)C(F)(F)CNc1nc(-c2cc(-c3ccon3)n(Cc3ccccc3F)n2)ncc1F system_name="soluble guanylate cyclase (sGC) (Homo sapiens, UniProt Q02108+Q02153)" endpoint_value="< 100 nM"

Notebook entry, soluble guanylate cyclase (sGC) (Homo sapiens, UniProt Q02108+Q02153) assay: EC50 of `NCC(=O)OCCNc1nc(-c2cc(-c3ccon3)n(Cc3ccccc3F)n2)ncc1F` = ? 100 to 1000 nM

Notebook entry, soluble guanylate cyclase (sGC) (Homo sapiens, UniProt Q02108+Q02153) assay: EC50 of `CCOC(=O)CCNc1nc(-c2cc(-c3ccon3)n(Cc3ccccc3F)n2)ncc1F` = ? 100 to 1000 nM

Notebook entry, soluble guanylate cyclase (sGC) (Homo sapiens, UniProt Q02108+Q02153) assay: EC50 of CCC(C)(N)CNc1nc(-c2cc(C(C)=O)n(Cc3ccccc3F)n2)ncc1F (stereo not shown) = ? > 1000 nM
